System under test: BRAF V600E (Homo sapiens, UniProt P15056, V600E)
Construct: endogenous C-terminal HiBiT fusion tag on BRAF V600E allele; endogenous in cells; host or cells: A375 clone 1F10 (CRISPR-Cas9 knock-in of the HiBiT tag; parental A375 from ATCC)
Sequence (P15056 whole entry V600E, the tested form may be a part): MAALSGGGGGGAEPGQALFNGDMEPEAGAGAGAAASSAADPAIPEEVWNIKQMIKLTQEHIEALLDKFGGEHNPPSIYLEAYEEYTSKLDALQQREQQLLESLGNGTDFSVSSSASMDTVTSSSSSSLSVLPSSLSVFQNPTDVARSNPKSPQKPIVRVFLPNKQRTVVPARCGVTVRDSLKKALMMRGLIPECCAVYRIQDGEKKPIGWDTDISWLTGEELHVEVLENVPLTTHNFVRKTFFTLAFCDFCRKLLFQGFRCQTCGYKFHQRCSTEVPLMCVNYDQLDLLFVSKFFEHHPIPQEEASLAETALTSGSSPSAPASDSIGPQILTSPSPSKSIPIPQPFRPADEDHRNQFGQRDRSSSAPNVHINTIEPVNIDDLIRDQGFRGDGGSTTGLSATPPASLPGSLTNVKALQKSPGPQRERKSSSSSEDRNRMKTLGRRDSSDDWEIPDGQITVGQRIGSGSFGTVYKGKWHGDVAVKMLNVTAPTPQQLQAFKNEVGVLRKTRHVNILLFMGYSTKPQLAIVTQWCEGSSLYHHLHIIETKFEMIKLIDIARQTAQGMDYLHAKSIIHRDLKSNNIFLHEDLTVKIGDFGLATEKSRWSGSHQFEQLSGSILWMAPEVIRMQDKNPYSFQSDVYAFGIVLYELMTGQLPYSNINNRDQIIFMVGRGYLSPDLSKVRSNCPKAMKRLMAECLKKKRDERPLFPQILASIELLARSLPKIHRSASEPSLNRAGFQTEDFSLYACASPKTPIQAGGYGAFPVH
Assay name: BRAF HiBiT degradation assay, C-terminal HiBiT-tagged BRAF V600E A375 cells (clone 1F10), Nano-Glo HiBiT Lytic assay
Format: cell-based
Measurement context: A-375; A375 (BRAF V600E); percentage protein degraded at maximal compound effect relative to DMSO
Here, each record is paired with measured Dmax data.

- CCCS(=O)(=O)Nc1cccc(-c2nc(C(C)(C)C)sc2-c2ccnc(Nc3cccc(OC4CCN(C(=O)C5CCN(c6ccc(C(=O)NC7CCC(=O)NC7=O)nc6)CC5)CC4)c3)n2)c1F (racemic): 30 to 70%
- CCCS(=O)(=O)Nc1cccc(-c2nc(C(C)(C)C)sc2-c2ccnc(Nc3cnn(CC4CCN(CC[C@@H]5CCN(c6ccc(C7CCC(=O)NC7=O)cn6)C5)CC4)c3)n2)c1F (mixture of isomers): > 70%
- CCCS(=O)(=O)Nc1cccc(-c2nc(C3(C)CCN(C(=O)C4CCN(CC5CCN(c6ccc(C7CCC(=O)NC7=O)cc6)CC5)CC4)CC3)sc2-c2ccnc(N)n2)c1F (racemic): > 70%
- CCCS(=O)(=O)Nc1cccc(-c2nc(C)sc2-c2ccnc(Nc3ccc(N4CCN(CC5(C)CCN(c6ccc(C7CCC(=O)NC7=O)cn6)CC5)CC4)cc3)n2)c1F (racemic): > 70%

Continue with the next compound.
**Q:** Provide Dmax, tested on BRAF V600E (Homo sapiens, UniProt P15056, V600E), for CCCS(=O)(=O)Nc1cccc(-c2cn(-c3ccc(N4CCN(CC5CCN(c6ccc(C7CCC(=O)NC7=O)cn6)CC5)CC4)cc3)nc2-c2ccncc2)c1F (racemic) .
**A:** > 70%
